# Target System: RAC-gamma serine/threonine-protein kinase (Homo sapiens, UniProt Q9Y243)
# Sequence (Q9Y243 whole entry): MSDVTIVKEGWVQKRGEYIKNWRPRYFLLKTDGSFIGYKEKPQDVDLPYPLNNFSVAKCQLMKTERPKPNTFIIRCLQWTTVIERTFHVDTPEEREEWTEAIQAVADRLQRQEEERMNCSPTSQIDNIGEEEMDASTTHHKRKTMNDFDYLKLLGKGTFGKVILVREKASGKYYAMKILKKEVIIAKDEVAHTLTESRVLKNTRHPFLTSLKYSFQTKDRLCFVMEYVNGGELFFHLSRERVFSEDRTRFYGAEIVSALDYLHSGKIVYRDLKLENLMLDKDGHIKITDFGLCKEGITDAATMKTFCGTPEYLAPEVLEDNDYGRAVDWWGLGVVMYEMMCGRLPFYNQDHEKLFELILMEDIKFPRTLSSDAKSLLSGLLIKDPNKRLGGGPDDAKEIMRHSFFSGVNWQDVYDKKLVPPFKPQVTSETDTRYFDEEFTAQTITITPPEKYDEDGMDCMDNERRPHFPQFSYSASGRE
Measured Endpoint: IC50 (nM)
Numeric only. Scale: nM

molecule C[C@@H](NC(=O)CCCCCNC(=O)[C@@H]1C[C@@H](O)[C@H](n2cnc3c(N)ncnc32)C1)C(=O)NCCCCCC(=O)N[C@H](CCCNC(=N)N)C(=O)N[C@H](CCCNC(=N)N)C(N)=O , IC50 observed: 2040

====

Known pKd of a selection of compounds
# Target System: cAMP-dependent protein kinase catalytic subunit alpha (Bos taurus)
# Assay Notes: The assay is based on the kinase-bound labeled fluorescent probe can be displaced by competitive inhibitors, which can be registered by measurement of the resulting change in fluorescence properties of the solution. The binding curves were fitted using GraphPad Prism version 4.03 using sigmoidal dose-respons
# Settings: pH 7.5
pKd: −log10 of the molar value.

Smiles Entry | Target System | Measured Endpoint | Measured Value
O=S(=O)(NCCNC/C=C/c1ccc(Br)cc1)c1cccc2cnccc12 | cAMP-dependent protein kinase catalytic subunit alpha (Bos taurus) | pKd | 7.64
NC(=O)[C@H](Cc1ccc(C(=O)c2ccccc2)cc1)NC(=O)CCCCCNC(=O)[C@H]1O[C@@H](n2cnc3c(N)ncnc32)[C@H](O)[C@@H]1O | cAMP-dependent protein kinase catalytic subunit alpha (Bos taurus) | pKd | < 4.00

Attention now turns to another entry.
Short answer for N=C(N)NCCC[C@@H](NC(=O)[C@@H](CCCNC(=N)N)NC(=O)[C@@H](CCCNC(=N)N)NC(=O)[C@@H](CCCNC(=N)N)NC(=O)[C@@H](CCCNC(=N)N)NC(=O)[C@@H](CCCNC(=N)N)NC(=O)CCCCCNC(=O)[C@@H](CCCCN)NC(=O)CCCCCNC(=O)[C@H]1O[C@@H](n2cnc3c(N)ncnc32)[C@H](O)[C@@H]1O)C(N)=O : pKd was > 9.30

These data points were gathered from BindingDB's records for doi:10.1021/jm800797n.
